Test system: 699152-130-R-J1-PDC complex spheroid viability
Protocol Notes: Anticancer human tumor 699152-130-R-J1-PDC patient-derived pancreatic carcinoma cell line growth inhibition [POLQ]
Stated Conditions: second compound 0.1 µM; first compound 1 µM; stronger effect = lower value
Measured Attribute: viability, T/C (%)
Report only the number, with the unit % understood.

Recorded viability, T/C, per entry:
>  <Compound>
CC(C)n1c(=O)n(C)c2cnc3cc(F)c(-c4ccc(OCCCN5CCCCC5)nc4)cc3c21 + COC1C(OC(N)=O)C(O)C(Oc2ccc3c(O)c(NC(=O)c4ccc(O)c(CC=C(C)C)c4)c(=O)oc3c2C)OC1(C)C

>  <U>
%

>  <viability, T/C>
41

$$$$
>  <Compound>
CC(C)n1c(=O)n(C)c2cnc3cc(F)c(-c4ccc(OCCCN5CCCCC5)nc4)cc3c21 + Nc1ccc(C#CCN(C(=O)Cc2ncc(C(F)(F)F)cc2C(F)(F)F)c2ccc(F)cc2)nn1

>  <U>
%

>  <viability, T/C>
108

$$$$
>  <Compound>
CC1COCCN1c1cc(-c2ccnn2C)c2ccnc(-c3ccn[nH]3)c2n1 (stereo not drawn) + Cc1cccc(N(C)C(=O)C2C(O)CCN2c2nc(C)cc(C(F)(F)F)c2C#N)c1

>  <U>
%

>  <viability, T/C>
59.4

$$$$

Reported viability, T/C, compound CCCS(=O)(=O)Nc1ccc(F)c(C(=O)c2c[nH]c3ncc(-c4ccc(Cl)cc4)cc23)c1F + COC1C(OC(N)=O)C(O)C(Oc2ccc3c(O)c(NC(=O)c4ccc(O)c(CC=C(C)C)c4)c(=O)oc3c2C)OC1(C)C : ____
159

Reported viability, T/C, compound CCc1c2c(nc3ccc(O)cc13)-c1cc3c(c(=O)n1C2)COC(=O)[C@]3(O)CC + Nc1ccc(C#CCN(C(=O)Cc2ncc(C(F)(F)F)cc2C(F)(F)F)c2ccc(F)cc2)nn1 : ____
12.6

###

Tested on: 699152-130-R-J1-PDC complex spheroid viability
Protocol Notes: Anticancer human tumor 699152-130-R-J1-PDC cell line growth inhibition [POLQ];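 also: spheroids exposed to agents for 7 days before viability reading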
Stated Conditions: curve of compound
pIC50: −log10 of the molar value.
Reported pIC50 values for the following molecules.

Recorded pIC50, per entry:
>  <Molecule>
CC1COCCN1c1cc(C2(S(C)(=N)=O)CC2)nc(-c2ccnc3[nH]ccc23)n1 (stereo unspecified)

>  <pIC50>
< 5.00

$$$$
>  <Molecule>
CCc1cc2c(N3CCc4c(cc(Cn5ccnc5)cc4-c4cn(C)nc4C(F)(F)F)C3=O)ccnc2c(OC)n1

>  <pIC50>
< 5.00

$$$$
>  <Molecule>
COc1cccc(OCCCN)c1-c1cc(Nc2cnc(C#N)cn2)n[nH]1

>  <pIC50>
< 6.00

$$$$
>  <Molecule>
CC(C)n1c(=O)n(C)c2cnc3cc(F)c(-c4ccc(OCCCN5CCCCC5)nc4)cc3c21

>  <pIC50>
< 5.00

$$$$
>  <Molecule>
CCc1cc2c(N3CCc4c(cc(Cn5ccnc5)cc4-c4cn(C)nc4C(F)(F)F)C3=O)cc(C)nc2c(OC)n1

>  <pIC50>
< 5.00

$$$$

Let's switch to this molecule now.
Reported pIC50, molecule C=CC(=O)N1CCN(c2nc(=O)n(-c3c(C)ccnc3C(C)C)c3nc(-c4c(O)cccc4F)c(F)cc23)C(C)C1 (stereo unspecified) : ____
< 5.00

###

System: 699152-130-R-J1-PDC complex spheroid viability
Protocol Notes: Anticancer human tumor 699152-130-R-J1-PDC cell line growth inhibition [POLQ];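 also: spheroids exposed to agents for 7 days before viability reading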;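 as to viability, T/C: percent of DMSO vehicle control viability so 100% = vehicle and 0% = no viable signal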
Stated Conditions: second compound 10 µM; first compound 1 µM; stronger effect = lower value
Y if viability, T/C is below 70%. N if not; exact matches included in N.

# example entries with known answers
>  <Compound>
COc1cc(C2c3cc4c(cc3C(OC3OC5COC(C)OC5C(O)C3O)C3COC(=O)C23)OCO4)cc(OC)c1O (stereo not drawn) + Nc1ccc(C#CCN(C(=O)Cc2ncc(C(F)(F)F)cc2C(F)(F)F)c2ccc(F)cc2)nn1

>  <Target Or System>
699152-130-R-J1-PDC complex spheroid viability

>  <Answer Label>
Y

$$$$
>  <Compound>
C=CCn1c(=O)c2cnc(Nc3ccc(N4CCN(C)CC4)cc3)nc2n1-c1cccc(C(C)(C)O)n1 + Cc1cccc(N(C)C(=O)C2C(O)CCN2c2nc(C)cc(C(F)(F)F)c2C#N)c1

>  <Target Or System>
699152-130-R-J1-PDC complex spheroid viability

>  <Answer Label>
N

$$$$
>  <Compound>
C=CC(=O)N1CCN(c2nc(=O)n(-c3c(C)ccnc3C(C)C)c3nc(-c4c(O)cccc4F)c(F)cc23)C(C)C1 (stereo not drawn) + Nc1ccc(C#CCN(C(=O)Cc2ncc(C(F)(F)F)cc2C(F)(F)F)c2ccc(F)cc2)nn1

>  <Target Or System>
699152-130-R-J1-PDC complex spheroid viability

>  <Answer Label>
N

$$$$
>  <Compound>
O=C(Nc1ccc(O)c(NS(=O)(=O)c2ccc(F)cc2)c1)c1ccc(-c2ccccc2)cc1 + Cc1cccc(N(C)C(=O)C2C(O)CCN2c2nc(C)cc(C(F)(F)F)c2C#N)c1

>  <Target Or System>
699152-130-R-J1-PDC complex spheroid viability

>  <Answer Label>
N

$$$$
>  <Compound>
CNCc1ccc(-c2[nH]c3cc(F)cc4c3c2CCNC4=O)cc1 + COC1C(OC(N)=O)C(O)C(Oc2ccc3c(O)c(NC(=O)c4ccc(O)c(CC=C(C)C)c4)c(=O)oc3c2C)OC1(C)C

>  <Target Or System>
699152-130-R-J1-PDC complex spheroid viability

>  <Answer Label>
N

$$$$

is_below(viability, T/C, 70%) for C#Cc1c(F)ccc2cc(O)cc(-c3ncc4c(N5CC6CCC(C5)N6)nc(OCC56CCCN5CC(F)C6)nc4c3F)c12 (stereo not drawn) + Nc1ccc(C#CCN(C(=O)Cc2ncc(C(F)(F)F)cc2C(F)(F)F)c2ccc(F)cc2)nn1 ?
Y

is_below(viability, T/C, 70%) for CC1COCCN1c1cc(C2(O)CC3CCC(C2)O3)c2cnn(-c3ccn[nH]3)c2n1 (stereo not drawn) + Cc1cccc(N(C)C(=O)C2C(O)CCN2c2nc(C)cc(C(F)(F)F)c2C#N)c1 ?
Y

is_below(viability, T/C, 70%) for CCCS(=O)(=O)Nc1ccc(F)c(C(=O)c2c[nH]c3ncc(-c4ccc(Cl)cc4)cc23)c1F + COC1C(OC(N)=O)C(O)C(Oc2ccc3c(O)c(NC(=O)c4ccc(O)c(CC=C(C)C)c4)c(=O)oc3c2C)OC1(C)C ?
N

is_below(viability, T/C, 70%) for CCc1cc2c(N3CCc4c(cc(Cn5ccnc5)cc4-c4cn(C)nc4C(F)(F)F)C3=O)cc(C)nc2c(OC)n1 + COC1C(OC(N)=O)C(O)C(Oc2ccc3c(O)c(NC(=O)c4ccc(O)c(CC=C(C)C)c4)c(=O)oc3c2C)OC1(C)C ?
N

is_below(viability, T/C, 70%) for COc1cccc(OCCCN)c1-c1cc(Nc2cnc(C#N)cn2)n[nH]1 + COC1C(OC(N)=O)C(O)C(Oc2ccc3c(O)c(NC(=O)c4ccc(O)c(CC=C(C)C)c4)c(=O)oc3c2C)OC1(C)C ?
Y

is_below(viability, T/C, 70%) for COc1ccc([C@@H](O)c2cc(-c3ncnc4cc(N5CCOCC5)ccc34)c(F)cc2Cl)nn1 + Nc1ccc(C#CCN(C(=O)Cc2ncc(C(F)(F)F)cc2C(F)(F)F)c2ccc(F)cc2)nn1 ?
N

is_below(viability, T/C, 70%) for CCc1cc2c(N3CCc4c(cc(Cn5ccnc5)cc4-c4cn(C)nc4C(F)(F)F)C3=O)ccnc2c(OC)n1 + Nc1ccc(C#CCN(C(=O)Cc2ncc(C(F)(F)F)cc2C(F)(F)F)c2ccc(F)cc2)nn1 ?
N

is_below(viability, T/C, 70%) for O=C(c1cc(Cc2n[nH]c(=O)c3ccccc23)ccc1F)N1CCN(C(=O)C2CC2)CC1 + Nc1ccc(C#CCN(C(=O)Cc2ncc(C(F)(F)F)cc2C(F)(F)F)c2ccc(F)cc2)nn1 ?
N

###

Tested on: 699152-130-R-J1-PDC complex spheroid viability
Protocol Notes: Anticancer human tumor 699152-130-R-J1-PDC cell line growth inhibition [POLQ];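 also: spheroids exposed to agents for 7 days before viability reading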;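 as to viability, T/C: percent of DMSO vehicle control viability so 100% = vehicle and 0% = no viable signal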
Stated Conditions: second compound 0.316 µM; first compound 1 µM; stronger effect = lower value
Met if viability, T/C is below 70%. Not met if not; exact matches included in Not met.

>  <Compound>
O=C(Nc1ccc(O)c(NS(=O)(=O)c2ccc(F)cc2)c1)c1ccc(-c2ccccc2)cc1 + Cc1cccc(N(C)C(=O)C2C(O)CCN2c2nc(C)cc(C(F)(F)F)c2C#N)c1

>  <Answer Label>
Not met

$$$$

Now, please, on to the next compound.
is_below(viability, T/C, 70%) for C#Cc1c(F)ccc2cc(O)cc(-c3ncc4c(N5CC6CCC(C5)N6)nc(OCC56CCCN5CC(F)C6)nc4c3F)c12 (centres undefined) + Cc1cccc(N(C)C(=O)C2C(O)CCN2c2nc(C)cc(C(F)(F)F)c2C#N)c1 ?
Met
